# assayed system: Deoxyhypusyl hydroxylase (Homo sapiens)
# Construct: endogenous in cells
# Sequence (Q9BU89 whole entry): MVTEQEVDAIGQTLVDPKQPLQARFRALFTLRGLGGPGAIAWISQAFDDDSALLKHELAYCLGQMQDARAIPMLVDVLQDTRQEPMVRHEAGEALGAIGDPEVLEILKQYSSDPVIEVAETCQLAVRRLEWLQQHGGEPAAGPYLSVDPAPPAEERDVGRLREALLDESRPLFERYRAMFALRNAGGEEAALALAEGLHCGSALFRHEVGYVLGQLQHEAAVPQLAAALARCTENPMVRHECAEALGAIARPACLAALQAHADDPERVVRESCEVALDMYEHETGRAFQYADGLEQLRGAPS
# procedure text: Cellular deoxyhypusyl hydroxylase (hypusine formation) inhibition, human B-cells and human smooth muscle cells
# Type: cell-based
# experimental parameters: concentration for half-maximal inhibition
# Description: The cell-free enzyme assay was performed to test a pilot peptidomimetic which can be equipped with hydroxypyridone warheads. The cell culture studies were performed to establish the inherent inhibitory potency of such hydroxypyridones. DOHH Assay. The intracellular conversion of peptide-bound deoxyhypusine to peptidyl hypusine was determined after preincubation of human T lymphocyte-derived cells (i.e. ACH-2) [Clouse et al., J. Immunol. […]
Output Y for Deoxyhypusyl hydroxylase ID50 (cellular) not less than 60; output N otherwise.

{"compound": "Cc1c(O)c(=O)ccn1C [HK-1, 1,2-dimethyl-3-hydroxypyrid-4-one]", "assigned label": "Y"}
{"compound": "C=CCn1ccc(=O)c(O)c1C", "assigned label": "N"}
{"compound": "N[C@@H](Cn1ccc(=O)c(O)c1)C(=O)O", "assigned label": "Y"}
{"compound": "CCc1c(O)c(=O)ccn1CC", "assigned label": "N"}
{"compound": "CCCn1ccc(=O)c(O)c1C", "assigned label": "N"}
{"compound": "CCn1ccc(=O)c(O)c1C", "assigned label": "N"}

Reference source for all entries: patent US5849587A
